Target: Renin (Homo sapiens, UniProt P00797)
Sequence (P00797 whole entry): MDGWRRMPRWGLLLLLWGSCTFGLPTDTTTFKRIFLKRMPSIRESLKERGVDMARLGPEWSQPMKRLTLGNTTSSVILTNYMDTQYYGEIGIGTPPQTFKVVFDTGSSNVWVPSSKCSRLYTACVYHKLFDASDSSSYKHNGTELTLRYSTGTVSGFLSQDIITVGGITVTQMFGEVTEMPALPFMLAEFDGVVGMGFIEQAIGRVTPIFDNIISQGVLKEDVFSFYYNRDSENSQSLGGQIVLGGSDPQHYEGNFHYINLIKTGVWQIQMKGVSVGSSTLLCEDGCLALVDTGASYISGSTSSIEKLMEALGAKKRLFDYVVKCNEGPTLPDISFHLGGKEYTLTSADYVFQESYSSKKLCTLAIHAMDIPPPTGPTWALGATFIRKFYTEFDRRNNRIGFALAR
Experiment: Inhibitory activity against human plasma renin; G means not measured
Assay type: cell-free
attributeMeasured: IC50 (nM)
Answer in nM, number only, no unit symbol.

// lookup IC50 for CCC(C)CNC(=O)C[C@H](O)C(CC(C)C)NC(=O)C(CC#CCNC(C)=O)NC(=O)C(Cc1cccc2ccccc12)Cc1cccc2ccccc12 (stereo in doubt; 55a) 2

====

Biological target: Renin (Homo sapiens)
Experiment: Inhibitory activity against human plasma renin
Assay type: cell-free
attributeMeasured: pIC50
Value format note: pIC50 is -log10 of concentration (mol/L); just state the number.

Worked examples, 2 molecules total:
CCC(C)CNC(=O)C[C@H](O)C(CC(C)C)NC(=O)C(CC#CCNC(=O)OCc1ccccc1)NC(=O)C(Cc1cccc2ccccc12)Cc1cccc2ccccc12 (stereo partly drawn)    6.82
CCC(C)CNC(=O)C[C@H](O)C(CC(C)C)NC(=O)C(CCCCn1cccc1)NC(=O)C(Cc1cccc2ccccc12)Cc1cccc2ccccc12 (stereo partly drawn)    7.06

Now for the molecule whose pIC50 we want.
Could you tell me which pIC50 is on file for CCC(C)CNC(=O)C[C@H](O)C(CC(C)C)NC(=O)C(Cc1cnc[nH]1)NC(=O)C(Cc1cccc2ccccc12)Cc1cccc2ccccc12 (stereo partly drawn) ? 7.21

src = ChEMBL document CHEMBL1125654
